Here the recorded IC50 is given for each entry.
Molecular target: Apoptotic protease-activating factor 1 (Homo sapiens, UniProt O14727)
Sequence (O14727 whole entry): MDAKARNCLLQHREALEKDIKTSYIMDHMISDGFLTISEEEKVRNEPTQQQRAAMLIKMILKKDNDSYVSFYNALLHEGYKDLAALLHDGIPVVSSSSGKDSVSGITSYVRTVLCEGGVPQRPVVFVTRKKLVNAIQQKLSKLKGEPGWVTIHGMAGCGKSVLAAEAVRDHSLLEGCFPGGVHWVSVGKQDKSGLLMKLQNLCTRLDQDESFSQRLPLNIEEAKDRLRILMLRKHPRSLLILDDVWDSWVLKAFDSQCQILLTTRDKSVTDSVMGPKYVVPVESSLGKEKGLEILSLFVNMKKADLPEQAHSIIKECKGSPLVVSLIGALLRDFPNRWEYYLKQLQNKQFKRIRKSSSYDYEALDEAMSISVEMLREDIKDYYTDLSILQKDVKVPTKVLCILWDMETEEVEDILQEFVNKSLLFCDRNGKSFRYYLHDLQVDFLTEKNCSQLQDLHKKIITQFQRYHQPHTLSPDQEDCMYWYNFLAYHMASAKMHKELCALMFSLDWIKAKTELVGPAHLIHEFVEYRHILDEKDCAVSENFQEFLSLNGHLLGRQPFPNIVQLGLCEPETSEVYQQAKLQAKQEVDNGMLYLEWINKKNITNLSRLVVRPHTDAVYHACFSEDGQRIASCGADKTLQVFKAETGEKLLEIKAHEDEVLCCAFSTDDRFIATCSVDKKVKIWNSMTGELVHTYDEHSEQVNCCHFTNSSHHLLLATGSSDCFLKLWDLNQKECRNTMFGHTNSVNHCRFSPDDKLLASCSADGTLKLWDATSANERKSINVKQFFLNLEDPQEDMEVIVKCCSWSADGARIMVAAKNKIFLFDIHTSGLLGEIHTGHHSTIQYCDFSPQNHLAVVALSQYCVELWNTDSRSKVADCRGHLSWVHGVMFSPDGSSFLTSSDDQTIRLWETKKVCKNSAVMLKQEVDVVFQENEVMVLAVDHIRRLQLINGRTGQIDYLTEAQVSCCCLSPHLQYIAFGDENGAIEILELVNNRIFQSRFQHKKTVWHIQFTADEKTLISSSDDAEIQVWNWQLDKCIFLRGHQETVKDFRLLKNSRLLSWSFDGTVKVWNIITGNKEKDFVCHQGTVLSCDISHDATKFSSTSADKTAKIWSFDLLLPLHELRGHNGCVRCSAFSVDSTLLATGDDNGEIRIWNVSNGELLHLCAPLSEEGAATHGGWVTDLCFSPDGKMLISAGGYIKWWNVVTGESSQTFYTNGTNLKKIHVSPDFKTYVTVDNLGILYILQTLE
Type: functional
Active and inactive are the calls of the source.

# example entries with known answers
compound: COc1ccc(C(=O)c2nccc3cc(OC)c(OC)cc23)cc1OC
IC50: 24.4 µM (active)
//
compound: Cc1ccccc1-c1cc2c(nn1)-c1ccccc1C2=O
IC50: 25.5 µM (active)
//
compound: CCCCCc1ccc(OCCC[n+]2ccccc2)c(CCCCC)c1
IC50: 84.9 µM (active)
//
compound: CCOC(=O)c1ccc(NC2=CC(=O)C(=O)c3ccccc32)cc1
IC50: 4.73 µM (active)
//
compound: COc1ccccc1Nc1cc2cc(Br)ccc2c(=O)[nH]1
IC50: 1.51 µM (active)

Which IC50 value belongs to CCCCCCCCCCCCCCCC[N+](C)(C)C ?
27.5 µM (active)

Which IC50 value belongs to COC(=O)c1ccccc1-c1ccc(/C=C2\C(=O)N(c3ccccc3)N=C2c2ccccc2)o1 ?
28.9 µM (active)

Which IC50 value belongs to CCCc1cc(=O)oc2c3c(c4c(c12)OC(C)(C)C=C4)O[C@H](C)[C@@H](C)[C@@H]3O [CALANOLIDE A] ?
20.3 µM (active)
